Source listed as BindingDB's records for doi:10.1124/mol.112.080291.

target: Neuronal acetylcholine receptor subunit alpha-4 (Homo sapiens, UniProt P43681); experiment: Synthesizing Selective Agonists for the ?7 Nicotinic Receptor with in situ Click-Chemistry on Acetylcholine Binding Protein Templates.; conditions: pH 7.4; 37 °C
Sequence (P43681 whole entry): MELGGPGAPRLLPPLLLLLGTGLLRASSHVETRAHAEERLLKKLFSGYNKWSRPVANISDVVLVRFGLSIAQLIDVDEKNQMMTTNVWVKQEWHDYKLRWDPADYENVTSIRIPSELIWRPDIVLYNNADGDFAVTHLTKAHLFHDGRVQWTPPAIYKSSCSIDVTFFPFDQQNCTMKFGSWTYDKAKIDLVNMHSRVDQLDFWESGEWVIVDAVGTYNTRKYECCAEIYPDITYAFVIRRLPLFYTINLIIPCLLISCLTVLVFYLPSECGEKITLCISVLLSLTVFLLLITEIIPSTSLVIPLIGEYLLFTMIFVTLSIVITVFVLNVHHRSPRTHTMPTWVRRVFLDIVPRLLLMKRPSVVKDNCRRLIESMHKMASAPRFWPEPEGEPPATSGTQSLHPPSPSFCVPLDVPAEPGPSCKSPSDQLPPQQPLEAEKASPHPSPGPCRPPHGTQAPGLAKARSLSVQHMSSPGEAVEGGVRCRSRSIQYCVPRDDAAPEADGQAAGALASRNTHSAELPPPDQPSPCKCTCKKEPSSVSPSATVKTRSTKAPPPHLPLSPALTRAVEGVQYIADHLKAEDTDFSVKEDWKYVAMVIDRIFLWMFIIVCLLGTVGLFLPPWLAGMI
measuredAttribute: Ki (µM)
Unit µM implied. Number only.

>  <molecule>
Cn1nncc1COc1cc(=O)n(C)c2ccccc12

>  <unitsOfMeasure>
µM

>  <Ki>
30

$$$$

query: Tell me Ki reported for COc1ccc(C=O)c(OCc2cn([C@@H]3C[C@H]4CC[C@@H](C3)[N+]4(C)C)nn2)c1 [13q]
result: 7

query: Tell me Ki reported for C[N+]1(C)[C@@H]2CC[C@H]1C[C@H](n1cc(CNC(=O)N3c4ccccc4CCc4ccccc43)nn1)C2 [23q]
result: 30

query: Tell me Ki reported for `Cc1cc([N+](=O)[O-])ccc1OCc1cn([C@@H]2C[C@H]3CC[C@@H](C2)[N+]3(C)C)nn1`
result: 14

query: Tell me Ki reported for COc1ccc(C=O)c(OCc2cn([C@@H]3C[C@H]4CC[C@@H](C3)N4C)nn2)c1 [13t]
result: 5

query: Tell me Ki reported for Cc1cc(C)nc(SCCCc2cn([C@@H]3C[C@H]4CC[C@@H](C3)[N+]4(C)C)nn2)n1 [21q]
result: 27.1

====

Target: Neuronal acetylcholine receptor subunit alpha-7 (Homo sapiens)
Sequence (P36544 whole entry): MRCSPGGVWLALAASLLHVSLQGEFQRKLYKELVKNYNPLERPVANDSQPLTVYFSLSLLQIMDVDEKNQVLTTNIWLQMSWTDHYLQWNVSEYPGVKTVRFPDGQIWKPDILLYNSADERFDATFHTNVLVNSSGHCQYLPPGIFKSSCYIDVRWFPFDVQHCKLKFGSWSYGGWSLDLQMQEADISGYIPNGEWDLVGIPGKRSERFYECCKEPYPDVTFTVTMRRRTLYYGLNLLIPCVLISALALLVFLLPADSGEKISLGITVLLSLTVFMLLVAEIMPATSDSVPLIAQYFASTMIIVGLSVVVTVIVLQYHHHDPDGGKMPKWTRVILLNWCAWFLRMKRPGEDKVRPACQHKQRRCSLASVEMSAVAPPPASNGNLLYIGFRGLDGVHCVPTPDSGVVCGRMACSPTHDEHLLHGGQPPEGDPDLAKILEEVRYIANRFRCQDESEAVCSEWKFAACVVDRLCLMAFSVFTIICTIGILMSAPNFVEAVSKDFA
Assay: Synthesizing Selective Agonists for the ?7 Nicotinic Receptor with in situ Click-Chemistry on Acetylcholine Binding Protein Templates.
Details: pH 7.4; 37 °C
Experimental: Assay Description 2 Assays used to generate Ki or EC50 values. […] Solutions were each counted for 1 min on either a Beckman LS 6500 liquid scintillation counter or Wallac 1450 Microbeta Trilux. […] Competition curves and direct binding were measured following the protocol p
# Lookup of reported pEC50 keyed by entry
Here pEC50 is given on a logarithmic scale as minus log10 of the concentration in mol/L.

>  <compound>
CN1[C@@H]2CC[C@H]1C[C@H](n1cc(CNS(=O)(=O)c3ccc([N+](=O)[O-])cc3)nn1)C2 [16t]

>  <experimentalTarget>
Neuronal acetylcholine receptor subunit alpha-7 (Homo sapiens)

>  <pEC50>
5.30

$$$$
>  <compound>
C[N+]1(C)[C@@H]2CC[C@H]1C[C@H](n1cc(-c3cc(C(F)(F)F)cc(C(F)(F)F)c3)nn1)C2 [17q]

>  <experimentalTarget>
Neuronal acetylcholine receptor subunit alpha-7 (Homo sapiens)

>  <pEC50>
6.05

$$$$

Now consider a different compound.
query: Tell me pEC50 reported for C[N+]1(C)[C@@H]2CC[C@H]1C[C@H](n1cc(C(O)(c3ccccc3)C(F)(F)F)nn1)C2 (some centres undefined) [19q]
result: 5.70

====

Biological target: Neuronal acetylcholine receptor subunit alpha-4 (Homo sapiens, UniProt P43681)
Assay: Synthesizing Selective Agonists for the ?7 Nicotinic Receptor with in situ Click-Chemistry on Acetylcholine Binding Protein Templates.
Conditions: pH 7.4; 37 °C
Method: Assay Description 2 Assays used to generate Ki or EC50 values. […] Solutions were each counted for 1 min on either a Beckman LS 6500 liquid scintillation counter or Wallac 1450 Microbeta Trilux. […] Competition curves and direct binding were measured following the protocol p
# Lookup of reported pKi keyed by entry
Here pKi is given on a logarithmic scale as minus log10 of the concentration in mol/L.

Would you please look over these solved cases?
>  <compound>
CN1[C@@H]2CC[C@H]1C[C@H](n1cc(COc3ccccc3C3CCCC3)nn1)C2 [18t]

>  <experimentalTarget>
Neuronal acetylcholine receptor subunit alpha-4 (Homo sapiens, UniProt P43681)

>  <pKi>
4.92

$$$$
>  <compound>
C[N+]1(C)[C@@H]2CC[C@H]1C[C@H](n1cc(COc3ccccc3C3CCCC3)nn1)C2 [18q]

>  <experimentalTarget>
Neuronal acetylcholine receptor subunit alpha-4 (Homo sapiens, UniProt P43681)

>  <pKi>
5.40

$$$$
>  <compound>
COc1cc(C=O)ccc1OCc1cn([C@@H]2C[C@H]3CC[C@@H](C2)[N+]3(C)C)nn1

>  <experimentalTarget>
Neuronal acetylcholine receptor subunit alpha-4 (Homo sapiens, UniProt P43681)

>  <pKi>
5.22

$$$$

Now consider a different compound.
query: Tell me pKi reported for C[N+]1(C)[C@@H]2CC[C@H]1C[C@H](n1cc(C3(O)c4ccccc4-c4ccccc43)nn1)C2 [20q]
result: 4.82
